# Test system: C57 Mice
# ASSAY PROCEDURE: Estimating circulating EPO release in mice (plasma EPO by mouse EPO ELISA)
# Type: in vivo
# CONDITIONS USED: oral gavage 50 mg/kg, plasma six hours after administration, EPO in control = 62 ng/mL
# Method: (1) Protocol for Estimating Circulating EPO Release in Mice C57 Mice were administered various doses (10 mg/kg, 30 mg/kg, 50 mg/kg, 100 mg/kg) of compounds of the present invention by oral gavage at 10 ml/kg. Six hours after compound administration, mice were bled by retro-orbital puncture, under light ether anesthesia in microfuge tubes containing 2% EDTA (10 μl/100 μl of blood). Plasma was separated and analyzed for EPO content by mouse EPO ELISA.
Simple rule here: EPO (ng/mL) oral gavage 50 mg/kg less than 500 ng/mL is YES, otherwise NO.

Quick check: EPO (ng/mL) oral gavage 50 mg/kg of O=C(O)CNC(=O)c1c(O)c2ccc(Cl)cc2n(OCc2c(F)cccc2F)c1=O [Example 20] under 500 ng/mL?
NO

Quick check: EPO (ng/mL) oral gavage 50 mg/kg of O=C(O)CNC(=O)c1c(O)c2ccccc2n(OCc2ccccc2F)c1=O [Example 62] under 500 ng/mL?
YES

Quick check: EPO (ng/mL) oral gavage 50 mg/kg of CCOn1c(=O)c(C(=O)NCC(=O)O)c(O)c2ccccc21 [Example 63] under 500 ng/mL?
NO

Quick check: EPO (ng/mL) oral gavage 50 mg/kg of O=C(O)CNC(=O)c1c(O)c2ccccc2n(OCc2c(F)cccc2F)c1=O [Example 16] under 500 ng/mL?
NO

Quick check: EPO (ng/mL) oral gavage 50 mg/kg of COc1ccc(COn2c(=O)c(C(=O)NCC(=O)O)c(O)c3ccccc32)cc1 [Example 67] under 500 ng/mL?
YES

Quick check: EPO (ng/mL) oral gavage 50 mg/kg of C=CCOn1c(=O)c(C(=O)NCC(=O)O)c(O)c2ccccc21 [Example 15] under 500 ng/mL?
NO
